Reference for the values: PubChem BioAssay AID690

Target: Alkaline phosphatase, placental type (Homo sapiens) (UniProt P05187)
Sequence (P05187 whole entry, looked up): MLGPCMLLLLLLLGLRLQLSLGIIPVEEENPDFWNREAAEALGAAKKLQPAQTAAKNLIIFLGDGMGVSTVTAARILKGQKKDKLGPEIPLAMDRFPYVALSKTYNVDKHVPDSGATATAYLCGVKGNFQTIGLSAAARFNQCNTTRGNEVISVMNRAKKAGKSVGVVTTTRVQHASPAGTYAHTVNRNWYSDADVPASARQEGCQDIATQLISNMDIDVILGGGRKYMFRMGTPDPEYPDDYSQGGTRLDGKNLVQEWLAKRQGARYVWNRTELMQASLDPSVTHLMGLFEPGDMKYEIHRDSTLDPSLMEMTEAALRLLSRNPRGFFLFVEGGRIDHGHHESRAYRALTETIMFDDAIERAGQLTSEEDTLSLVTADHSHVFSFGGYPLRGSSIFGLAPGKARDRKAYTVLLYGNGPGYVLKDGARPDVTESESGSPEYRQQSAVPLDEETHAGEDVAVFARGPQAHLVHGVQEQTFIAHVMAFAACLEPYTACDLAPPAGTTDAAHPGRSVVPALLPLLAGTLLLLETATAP
outcome.measure: pIC50
// pIC50 is dimensionless: -log10 of concentration (M)

Input: Give the measured pIC50 of O=C1C2C3C=CC(C3)C2C(=O)N1c1n[nH]c(-c2cccnc2)n1 (stereo not given) .
Output: 4.53

Input: CCCc1[nH]nc2c1C(c1ccc(O)c(OC)c1)C(C#N)=C(N)O2 (stereo not given) , same question.
Output: 4.93

Input: O=c1oc2cc(Cl)ccc2n1CSc1nc2ccccc2s1 , same question.
Output: 4.07

Input: O=C(Nc1cc(N2CCOCC2)ncn1)NC1(C(F)(F)F)Oc2ccc(Cl)cc2O1 (stereo not given) , same question.
Output: 4.90

Input: CC1CCCC/C1=N/Nc1ccc([N+](=O)[O-])cc1[N+](=O)[O-] (stereo not given) , same question.
Output: 5.14

* * *

Target: Alkaline phosphatase, placental type (Homo sapiens)
pIC50: −log10 of the molar value.
Rule: pIC50 of 5 or more gives class 1; anything lower gives class 0.

Input: Evaluate Clc1ccc(/C=C/c2nc3ccccc3[nH]2)c(Cl)c1 : pIC50 at minimum 5?
Output: class 1

Input: Cc1ccc(C)c(NC(=S)NC(NC(=O)Cc2cccc3ccccc23)C(Cl)(Cl)Cl)c1 (stereo unspecified) , same question.
Output: class 0

Input: CN1C(=O)/C(=C2/C=Cc3ccccc3N2CCCS(=O)(=O)O)SC1=S , same question.
Output: class 0

Input: N#Cc1c(SCC(=O)OCc2ccccc2)nsc1SCC(=O)OCc1ccccc1 , same question.
Output: class 0

Input: CNc1nnc(-c2cc3ccccc3oc2=O)s1 , same question.
Output: class 1

Input: COC(=O)c1ccc2c(c1)C(C)(C)C(/C=C/c1ccccc1O)=[N+]2C , same question.
Output: class 0

Input: CC(C)C1N=C2c3ccccc3N=C(SCC(=O)c3ccc(O)c(O)c3)N2C1=O (stereo unspecified) , same question.
Output: class 1

Input: CN(C)c1ccc(/C=C/c2cc[n+](C)cc2)cc1 , same question.
Output: class 0

Input: CCOC(=O)SC1=N/C(=C\c2ccc(N(C)C)cc2)C(=O)S1 , same question.
Output: class 0

* * *

Biological target: Alkaline phosphatase, placental type (Homo sapiens) (UniProt P05187)
pIC50: −log10 of the molar value.
Rule: pIC50 of 5 or more gives true (1); anything lower gives false (0).

Input: Evaluate CCCCOc1ccc(CSC(=N)N)cc1[N+](=O)[O-] : pIC50 at minimum 5?
Output: false (0)

Input: COC(=O)c1cn[nH]c1NC(=S)Nc1ccccc1C , same question.
Output: false (0)

Input: c1ccc(CSCCc2ccncc2)cc1 , same question.
Output: true (1)

Input: CCc1ccc(NSc2ccccc2[N+](=O)[O-])cc1 , same question.
Output: false (0)

Input: Oc1ccc(CC2CC3CCN2CC3)cc1O (configuration not stated) , same question.
Output: false (0)

* * *

Let's go through some recorded IC50 values for Alkaline phosphatase, placental type (Homo sapiens) together.

Input: Give the measured IC50 of CC(=O)Oc1cc2oc(=O)cc(C)c2cc1OC(C)=O .
Output: 6.24 µM

Input: CN1c2ccccc2C(C)(C)[C@]12C=Cc1cc(O)ccc1O2 , same question.
Output: 43.9 µM

Input: c1ccc(-n2ncc3c2ncn2cnnc32)cc1 , same question.
Output: 2.11 µM

Input: COc1cc(/C=C2\N=C3CCCCCN3C2=O)ccc1O , same question.
Output: 25.6 µM

Input: Clc1ccc(CSCCc2ccncc2)cc1 , same question.
Output: 5.76 µM

Input: C/C(=N\Nc1ccc([N+](=O)[O-])cc1)c1cccc(N)c1 , same question.
Output: 51.9 µM

* * *

Molecular target: UniProt P05187
Assay: PLAP enzyme inhibitors, biochemical, luminescence, HTS (AID 690)
Conditions: purified PLAP, luminescent substrate
Activity calls are given as the source filed them. The rule behind the calls is not given here.
Just give me one of these, please: y = active, n = inactive

Input: Give the logged outcome of this assay for the following molecule: CN1/C(=C\C=C2\N=C(c3ccc(F)cc3)OC2=O)C(C)(C)c2ccccc21
Output: y

Input: CCN1/C(=C/c2ccc3cccc(C)c3[n+]2CC)Sc2ccccc21 , same question.
Output: y

Input: c1ccc(Nc2cccc(Nc3ccccc3)n2)cc1 , same question.
Output: y

Input: CSc1cccc(NC(=O)/C=C/c2ccccc2)c1 , same question.
Output: y

Input: C=CCn1c(SCC(=O)c2ccc(O)c(O)c2)nnc1-c1ccccc1OC , same question.
Output: y

Input: Clc1ccc(CSc2nnnn2-c2ccc3c(c2)OCO3)c(Cl)c1 , same question.
Output: y

Input: CC1(C)Cc2c(sc3nc4n(c(=N)c23)CCCCC4)CO1 , same question.
Output: y

Input: O=C1NC(=S)N/C1=C/c1cc([N+](=O)[O-])ccc1O , same question.
Output: n

Input: CN1C(=O)/C(=C\c2ccc(N3CCCCC3)o2)C(=O)NC1=S , same question.
Output: y

Input: CCOc1ccccc1OCc1nn2c(-c3ccc(C)cc3)nnc2s1 , same question.
Output: y

Input: COCc1[nH]nc2c1C(c1cc(OC)c(O)c(OC)c1)C(C#N)=C(N)O2 (configuration not stated) , same question.
Output: y

Input: O=C(NCc1cccnc1)NC1(C(F)(F)F)Oc2ccc(Cl)cc2O1 (configuration not stated) , same question.
Output: y

Input: COc1cc(/C=C2/CCC/C(=C\c3cc(O)c(OC)c(Cl)c3)C2=O)cc(Cl)c1O , same question.
Output: y

Input: O=C1Nc2ccc(Br)cc2/C1=N/N=C/C1=C(N2CCOCC2)C(=C\c2ccccc2)/CC1 , same question.
Output: y

Input: Oc1ccc(C2=Nn3c(nnc3-c3ccco3)SC2)cc1O , same question.
Output: y

Input: CN(C)c1ccc(/C=C/C=C2/SC(=S)N(c3ccccc3)C2=O)cc1 , same question.
Output: y

Input: CCn1c(SCC(=O)c2ccc(O)c(O)c2)nnc1-c1ccccc1OC , same question.
Output: y

Input: COc1ccc(-c2nnc(-c3ccc(Br)o3)o2)cc1OC , same question.
Output: y

Input: CC(C)N=c1scc(-c2ccco2)n1/N=C/c1ccc(O)c(O)c1 , same question.
Output: y

Input: CCN1/C(=C\C=C\C2=[N+](CC)c3ccccc3C2(C)C)C(C)(C)c2ccccc21 , same question.
Output: y

Input: O/N=C/c1cc(Cl)ccc1OCc1cccc2ccccc12 , same question.
Output: y

Input: CCOC(=O)c1c(-n2c(C)cc(C=C3C(=O)NC(=S)NC3=O)c2C)sc2c1CCCC2 , same question.
Output: y

* * *

Task for the reader: assign each of the following compounds its reported IC50.
Biological target: Alkaline phosphatase, placental type (Homo sapiens) (UniProt P05187)

Input: Give the measured IC50 of CCn1c(SCC(=O)c2ccc(O)c(O)c2)nnc1-c1ccccc1 .
Output: 4.25 µM

Input: O=C(C[n+]1ccc(C(=O)N/N=C/c2ccc(Br)cc2)cc1)c1ccccc1 , same question.
Output: 34.3 µM

Input: COC(=O)C1=C(O)/C(=C\c2ccc(O)c(OC)c2)N=C1C , same question.
Output: 28.8 µM

Input: CN(C)CCNc1ncnc2ccccc12 , same question.
Output: 71.3 µM

Input: C=CCN1C(=O)NC2(O)C(=O)c3ccccc3C12O (stereo unspecified) , same question.
Output: 15.8 µM

Input: COc1cccc(OCCNc2cc(Cl)ccc2[N+](=O)[O-])c1 , same question.
Output: 60.7 µM

* * *

Molecular target: Alkaline phosphatase, placental type (Homo sapiens) (UniProt P05187)
Task for the reader: assign each of the following compounds its reported pIC50.
// pIC50 is dimensionless: -log10 of concentration (M)

Input: Give the measured pIC50 of Cc1cc(C)nc(NN2C(=O)/C(=C/c3ccc(O)cc3)SC2=S)n1 .
Output: 4.73

Input: CCN1/C(=C/c2ccc3ccccc3[n+]2CC)C=Cc2ccccc21 , same question.
Output: 4.97

Input: Cc1cc2nc(C3CCN(Cc4nnnn4Cc4cccs4)CC3)[nH]c2cc1C , same question.
Output: 5.12

Input: COc1cc(/C=C(/C(=O)c2cccs2)c2nc3ccccc3[nH]2)cc(OC)c1O , same question.
Output: 4.69

Input: O=c1sc2ccccc2n1COc1ccc(Cl)cc1 , same question.
Output: 4.00

Input: N#C/C(=C\c1ccc(O)c(O)c1)S(=O)(=O)c1ccccc1 , same question.
Output: 5.39

Input: CCn1c(CSc2nc3ccccc3s2)nnc1SCC(=O)c1ccc(O)c(O)c1 , same question.
Output: 5.82

Input: CC1=NN(Cc2ccccc2)C(=O)/C1=C\c1ccc(N(C)C)cc1 , same question.
Output: 4.74

Input: CCC1CCc2c(c3ccccc3[nH]c2=O)O1 (configuration not stated) , same question.
Output: 4.85

Input: CCOc1cc(/C=C(/C#N)C(=O)Nc2ccc(O)cc2)cc(Br)c1O , same question.
Output: 4.31

Input: Cc1nn(-c2ccccc2)c(C)c1/C=N/NC(=O)c1cc(-c2ccccc2)n[nH]1 , same question.
Output: 5.13

Input: O=C1C2C3C=CC(C3)C2C(=O)N1c1n[nH]c(-c2ccccc2)n1 (configuration not stated) , same question.
Output: 5.12

Input: O=C(NC1(C(F)(F)F)Oc2ccc(Cl)cc2O1)N1CCC2(CC1)OCCO2 (configuration not stated) , same question.
Output: 5.31

Input: O=C1C2CC=CCC2C(=O)N1c1n[nH]c(-c2ccccc2)n1 (configuration not stated) , same question.
Output: 5.06

Input: Cc1cc([N+](=O)[O-])ccc1NCc1ccc2ccccc2c1 , same question.
Output: 4.12

Input: CCCCOC(=O)C(C)Nc1n[nH]c(=S)[nH]c1=O (configuration not stated) , same question.
Output: 4.36

Input: COC(=O)C(N)Cc1ccc(O)c(O)c1 (configuration not stated) , same question.
Output: 4.99
